# Read-out: xenobiotic metabolism (CYP1A1), CYP1A1 (gene 1543)
# assay.remarks: CLD_CYP1A1_48hr: CellzDirect (CLD) Gene Expression Assay for xenobiotic metabolism (CYP1A1) at 48 hours (AID 2283705)
Records with an inconclusive call do not appear. Active and inactive are the calls of the source. The calls were made as follows: active = hit-call score of the fitted dose curve at least 0.9, where 1 is the maximum; inconclusive = response in the unintended direction; inactive = score below 0.9.
Entries and their measured AC50 follow.
measurement.name: AC50

                         structure_notation          measured
0  C=C(C)[C@H]1Cc2c(ccc3c2O[C@@H]2COc4cc(OC)c(OC)cc4[C@@H]2C3=O)O1     2 µM (active)
1      CCOP(=S)(OCC)Oc1ccc([N+](=O)[O-])cc1  3.61 µM (active)
2     CNc1cnn(-c2cccc(C(F)(F)F)c2)c(=O)c1Cl  5.37 µM (active)

* * *

# assay.remarks: ATG_E_Box_CIS: Attagene CIS-FACTORIAL HepG2 Assay for human Enhancer Box (E-box) (AID 2282936)
# conditions.used: HepG2 E-box cis-reporter transcription, actives raise or lower the signal
The source made the active and inactive calls. The calls were made as follows: active = hit-call score of the fitted dose curve at least 0.9, where 1 is the maximum; inactive = score below 0.9.
Outcome codes: active, inactive

In [3]: df
Out[3]:
                                   compound  answer_label
0             Nc1c(Cl)cc([N+](=O)[O-])cc1Cl      inactive
1  COc1ccc(C(=CC(=O)N2CCOCC2)c2ccc(Cl)cc2)cc1OC      inactive
2              CCNc1nc(Cl)nc(NC(C)(C)C#N)n1      inactive
3  CN(C)[C@@H]1C(=O)C(C(N)=O)=C(O)[C@@]2(O)C(=O)C3=C(O)c4c(O)cccc4[C@@](C)(O)[C@H]3[C@H](O)[C@@H]12      inactive
4  CCOP(=S)(Oc1cnc(C(C)(C)C)nc1)OC(C)C (configuration not stated)        active
5                      Nc1nc(N)nc(NC2CC2)n1      inactive
6  CCCOc1nn(C(=O)NS(=O)(=O)c2ccccc2C(=O)OC)c(=O)n1C      inactive

* * *

# assay.remarks: BSK_SAg_PBMCCytotoxicity: PBMC Cytotoxicity Assessment in the BioMAP Diversity Plus: SAg Assay (AID 2283093);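 also: PBMC viability measured as Alamar Blue reduction fluorescence at 546/580 nm; fitted both ways against DMSO so a hit may be loss or gain of signal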
# conditions.used: primary human HUVEC with PBMC
Active and inactive are the calls of the source. Rule for the calls: active = hit-call score of the fitted dose curve at least 0.9, where 1 is the maximum; inactive = score below 0.9.
Outcome codes: yes (1) (active), no (0) (inactive)

In [3]: df
Out[3]:
                                    molecule  answer_label
 0  CCOP(=S)(Oc1cnc(C(C)(C)C)nc1)OC(C)C (stereo unspecified)       yes (1)
 1                CC(=NC#N)N(C)Cc1ccc(Cl)nc1        no (0)
 2        COP(=O)(OC)SCn1c(=O)oc2cc(Cl)cnc21        no (0)
 3  CCOP(=S)(OCC)OC(Cl)C(Cl)(Cl)Cl (stereo unspecified)       yes (1)
 4  CCC(CC)Nc1c([N+](=O)[O-])cc(C)c(C)c1[N+](=O)[O-]       yes (1)
 5  CCCSP(=O)(OCC)Oc1ccc(Br)cc1Cl (stereo unspecified)       yes (1)
 6  C=C(C)[C@H]1Cc2c(ccc3c2O[C@@H]2COc4cc(OC)c(OC)cc4[C@@H]2C3=O)O1        no (0)
 7   C[Si](Cn1cncn1)(c1ccc(F)cc1)c1ccc(F)cc1        no (0)
 8                    CCCCSP(=O)(SCCCC)SCCCC       yes (1)
 9                CSc1nc(NC(C)C)nc(NC(C)C)n1        no (0)
10               CNC(=O)Oc1cccc2c1OC(C)(C)O2        no (0)

Provenance of the data: PubChem BioAssay (EPA / NIEHS)
